assay-procedure: clinical
measurement-setup: human, in vivo, 330 mg/m2, Tmax
experimental-endpoint: Tmax (h)
Return type: number; implicit unit h.

# Tmax lookup, item O=C(CCCCCCC(=O)Nc1ccccc1)NO [vorinostat] 2.5

###

assay-procedure: clinical
measurement-setup: human, in vivo, 180 mg/m2, Vz
Description: The assays were validated according to the common FDA and EMA guidelines on bioanalytical method validation.
experimental-endpoint: Vd

# Vd lookup, item `O=C(CCCCCCC(=O)Nc1ccccc1)NO` 490 L

###

assay-procedure: clinical
measurement-setup: human, in vivo, 180 mg/m2, Tmax
experimental-endpoint: Tmax (h)
Return type: number; implicit unit h.

# Tmax lookup, item O=C(CCCCCCC(=O)Nc1ccccc1)NO [vorinostat] 1.5

###

assay-procedure: clinical
measurement-setup: human, in vivo, 230 mg/m2, Vz
experimental-endpoint: Vd (L)
Return type: number; implicit unit L.

# Vd lookup, item O=C(CCCCCCC(=O)Nc1ccccc1)NO [vorinostat] 532

###

assay-procedure: clinical
measurement-setup: human, in vivo, po, 580 mg/m2, AUClast, Mean
experimental-endpoint: AUC(0-t) (µM·h)
Return type: number; implicit unit µM·h.

# AUC(0-t) lookup, item O=C(CCCCCCC(=O)Nc1ccccc1)NO [vorinostat] 11.3

###

assay-procedure: clinical
measurement-setup: human, in vivo, 280 mg/m2, Tmax
experimental-endpoint: Tmax

# Tmax lookup, item `O=C(CCCCCCC(=O)Nc1ccccc1)NO` 1.5 h

###

assay-procedure: clinical
measurement-setup: human, in vivo, 230 mg/m2, t1/2
Source text: The assays were validated according to the common FDA and EMA guidelines on bioanalytical method validation.
experimental-endpoint: half-life (h)
Return type: number; implicit unit h.

# half-life lookup, item `O=C(CCCCCCC(=O)Nc1ccccc1)NO` 1.63

###

assay-procedure: Plasma pharmacokinetics of vorinostat after oral administration (non-compartmental analysis)
measurement-setup: human, in vivo, 130 mg/m2
experimental-endpoint: AUC(0-t) (ng·h/mL)
Return type: number; implicit unit ng·h/mL.

# AUC(0-t) lookup, item `O=C(CCCCCCC(=O)Nc1ccccc1)NO` 1140

###

assay-procedure: clinical
measurement-setup: human, in vivo, po, 530 mg/m2, t1/2, Mean
experimental-endpoint: half-life (h)
Return type: number; implicit unit h.

# half-life lookup, item `O=C(CCCCCCC(=O)Nc1ccccc1)NO` 1.84

Taken from paper PMC6902473.
